Molecular target: Nuclear receptor coactivator 3 (Homo sapiens) (UniProt Q9Y6Q9)
Sequence (Q9Y6Q9 whole entry, looked up): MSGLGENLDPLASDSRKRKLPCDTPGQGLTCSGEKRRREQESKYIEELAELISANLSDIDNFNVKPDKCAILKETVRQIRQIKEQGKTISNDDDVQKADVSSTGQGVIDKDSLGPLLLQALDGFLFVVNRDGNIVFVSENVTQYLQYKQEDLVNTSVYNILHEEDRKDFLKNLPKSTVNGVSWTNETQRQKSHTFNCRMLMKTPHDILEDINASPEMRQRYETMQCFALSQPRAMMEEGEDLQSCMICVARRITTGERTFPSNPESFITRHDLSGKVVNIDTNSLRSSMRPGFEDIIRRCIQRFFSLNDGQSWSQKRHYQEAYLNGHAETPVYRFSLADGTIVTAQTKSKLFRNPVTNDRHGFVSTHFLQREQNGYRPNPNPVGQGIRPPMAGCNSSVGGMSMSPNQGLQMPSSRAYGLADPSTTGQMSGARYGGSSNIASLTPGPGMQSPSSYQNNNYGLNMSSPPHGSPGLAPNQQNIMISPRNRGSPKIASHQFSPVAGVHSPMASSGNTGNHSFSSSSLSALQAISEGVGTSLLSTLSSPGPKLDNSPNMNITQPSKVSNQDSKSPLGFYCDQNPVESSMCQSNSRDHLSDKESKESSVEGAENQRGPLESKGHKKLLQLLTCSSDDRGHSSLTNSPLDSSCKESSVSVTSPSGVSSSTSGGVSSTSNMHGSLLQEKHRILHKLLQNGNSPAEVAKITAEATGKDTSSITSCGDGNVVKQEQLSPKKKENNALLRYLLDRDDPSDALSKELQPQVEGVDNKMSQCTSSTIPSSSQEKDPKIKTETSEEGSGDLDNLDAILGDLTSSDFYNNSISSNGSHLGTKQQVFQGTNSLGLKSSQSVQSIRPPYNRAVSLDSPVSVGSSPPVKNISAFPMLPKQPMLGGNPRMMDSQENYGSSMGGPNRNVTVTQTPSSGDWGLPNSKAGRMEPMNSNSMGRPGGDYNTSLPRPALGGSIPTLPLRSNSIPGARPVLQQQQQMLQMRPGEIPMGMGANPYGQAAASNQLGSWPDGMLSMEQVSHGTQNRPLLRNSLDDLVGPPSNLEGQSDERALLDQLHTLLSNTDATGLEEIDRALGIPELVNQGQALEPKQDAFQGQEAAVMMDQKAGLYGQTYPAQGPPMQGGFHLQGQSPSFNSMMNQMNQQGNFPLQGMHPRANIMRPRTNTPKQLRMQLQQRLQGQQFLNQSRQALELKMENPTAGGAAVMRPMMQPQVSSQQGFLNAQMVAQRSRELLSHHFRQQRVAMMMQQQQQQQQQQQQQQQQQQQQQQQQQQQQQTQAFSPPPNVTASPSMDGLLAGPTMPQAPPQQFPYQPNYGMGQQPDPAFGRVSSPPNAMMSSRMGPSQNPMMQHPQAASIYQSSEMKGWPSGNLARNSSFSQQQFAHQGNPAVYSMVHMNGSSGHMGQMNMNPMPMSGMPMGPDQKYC
Assay: SRC3 coactivator transcriptional activity inhibitors, confirmation, cell-based, luminescence, quadruplicate (AID 588792);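 further: 0% = DMSO treated cells and 100% = gossypol at 36 µM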
Conditions: HEK293 GAL4-SRC3 luciferase reporter, at 3.6 µM
Activity calls are given as the source filed them.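 How the source made its calls: active means mean inhibition over 43.08%, the solvent-only control mean plus 3 SD; inactive means the rest.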
Give one outcome, nothing more. List: class 1 (active), class 0 (inactive)

Some solved entries appear below for comparison.
{"Compound": "CCOC(=O)c1sc(N(Cc2ccccc2)C(=O)COC(=O)c2ccc(O)cc2)nc1C", "Qualitative Label": "class 1"}
{"Compound": "Cc1ccc(/C=C/C(=O)c2c(C)cc(C)[nH]c2=O)cc1", "Qualitative Label": "class 1"}
{"Compound": "O=C(NC1CCCCCCC1)C1c2ccccc2C(=O)N1Cc1cccs1 (stereo not given)", "Qualitative Label": "class 0"}
{"Compound": "COC(=O)c1cc2c(n1S(=O)(=O)c1ccc(C)cc1)C(=O)C(=O)c1[nH]cc(C(=O)OCc3ccccc3)c1-2", "Qualitative Label": "class 1"}

Field: next compound
Prompt: For "CCOc1ccc(CC(=O)Nc2ccc(NC(=O)c3ccco3)cc2)cc1OCC" , what call appears in the results of this test?
Response: class 1

* * *

Test system: transactivating tegument protein VP16 (Human herpesvirus 1)
Test: VP16 transactivation reporter inhibitors, counter-screen for SRC2 inhibitor project, cell-based, luminescence, single concentration (AID 652007)
Details: cell-based VP16 transactivation luciferase reporter, at 8.9 µM, stronger effect = higher value
Catalogue of inhibition values
Enter your answer as a number in %; do not include the unit.

{"Compound": "COc1ccc(N(C(=O)CCl)C(C(=O)NCCc2ccccc2)c2cccs2)cc1 (centres undefined)", "Readout Unit": "%", "inhibition": 32.7}

Prompt: What inhibition value was documented for this compound, "COc1ccc(S(=O)(=O)/N=C2\C=C(Nc3ccc(O)cc3)C(=O)c3ccccc32)cc1" ?
Response: 67

Prompt: What inhibition value was documented for this compound, "Cc1ccc(NS(=O)(=O)c2cccc(C(=O)NCCCN3CCCC3=O)c2)cc1" ?
Response: -1.94

Prompt: What inhibition value was documented for this compound, "O=C(Cc1coc2cc3c(cc12)CCC3)OCC(=O)N1CCCC1=O" ?
Response: 16.3

Prompt: What inhibition value was documented for this compound, CC1CC(C)C(=NNC(N)=O)C(C(O)CC2CCC(=O)NC2=O)C1 (centres undefined) ?
Response: 8

Prompt: What inhibition value was documented for this compound, "C=C1C(=O)[C@@]23[C@H](O)C[C@@H]4C(C)(C)CC[C@H](O)[C@]4(C)[C@@H]2C[C@H](O)[C@@H]1[C@H]3O" ?
Response: 4.46

Prompt: What inhibition value was documented for this compound, "O=C(c1ccc(S(=O)(=O)NCc2ccco2)cc1)N1CCN(Cc2ccc3c(c2)OCO3)CC1" ?
Response: -2.59

Prompt: What inhibition value was documented for this compound, "Cc1cc(C)c(C#N)c(Sc2nc(C)c([N+](=O)[O-])c(C)c2C#N)n1" ?
Response: 12.9

Prompt: What inhibition value was documented for this compound, COc1ccc(CNC(=O)C2CCCN(Cc3nc(-c4cccc(C)c4)oc3C)C2)cc1 (centres undefined) ?
Response: -10.5

* * *

Test: VP16 transactivation reporter inhibitors, counter-screen for LRH-1 inverse agonist project, cell-based, luminescence, high throughput (AID 651615)
Conditions: Gal4-VP16 luciferase reporter cells, at 3.6 µM
Active and inactive are the calls of the source. Cut-off read from the data, not from the text of the source: active = inhibition above about 33%; inactive = the rest.
Give one outcome, nothing more. List: active, inactive

Some solved entries appear below for comparison.
{"Compound String": "O=C(Nc1ccc2oc(-c3ccncc3)nc2c1)c1ccc([N+](=O)[O-])o1", "Qualitative Label": "inactive"}
{"Compound String": "COc1ccc(CCNC(=O)CSc2nc(O)c(CCC(C)C)c(=O)[nH]2)cc1OC", "Qualitative Label": "inactive"}
{"Compound String": "Cc1ccc(C(=O)Nc2sc(C)c(-c3ccccc3)c2C(N)=O)cc1[N+](=O)[O-]", "Qualitative Label": "inactive"}
{"Compound String": "CCN(C(C)=O)c1cnc(C=NNC(N)=S)c2ccccc12", "Qualitative Label": "active"}
{"Compound String": "O=C(Cn1nnc2ccccc2c1=O)Nc1ccc2c(c1)CCC2", "Qualitative Label": "inactive"}

Field: next molecule
Prompt: For "CCc1cc(=O)[nH]c(SCC(=O)Nc2ccc3c(c2)OCCO3)n1" , what call appears in the results of this test?
Response: inactive
